Target desc: Enoyl-[acyl-carrier-protein] reductase [NADH] (Mycobacterium tuberculosis, UniProt P9WGR1, S94A)
pIC50: −log10 of the molar value.
// 0.0 strictly below 4 in pIC50; 1.0 otherwise

Is pIC50 for `C[C@H]1OC(=O)[C@@H](Cc2ccccc2)OC(=O)[C@H](C)[C@H](O)[C@H](Cc2cccnc2)NC(=O)[C@H]1NC(=O)c1ncccc1O` at or above 4?
1.0

Is pIC50 for `CC[C@@H](C)[C@H]1OC(=O)[C@H](C)[C@H](O)[C@H](Cc2cccnc2)NC(=O)[C@@H](NC(=O)c2ncccc2O)[C@@H](C)OC1=O` at or above 4?
1.0

Is pIC50 for `CC(C)[C@H]1OC(=O)[C@H](C)[C@H](O)[C@H](Cc2cccnc2)NC(=O)[C@@H](NC(=O)c2ncccc2O)[C@@H](C)OC1=O` at or above 4?
1.0

Is pIC50 for `C[C@@H]1C(=O)N[C@H](C2CCCCC2)C(=O)O[C@H](C)[C@H](NC(=O)c2ncccc2O)C(=O)N[C@@H](Cc2cccnc2)[C@@H]1O` at or above 4?
0.0
